biological target: Hck (UniProt P08631); test: phosphorylation enrichment, bacterial display (enrichment ratio); higher = better substrate or ligand; peptides without Tyr show the background;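 further: 11-residue human phosphosite peptides and single-mutation variants displayed on the E. coli surface, counted by deep sequencing, each peptide's frequency after selection divided by its frequency in the unselected input library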;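 further: frequency after pTyr selection over input frequency; kinase dosed for 20-30% of maximal phosphorylation in three min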
Sequence (P08631 whole entry, looked up): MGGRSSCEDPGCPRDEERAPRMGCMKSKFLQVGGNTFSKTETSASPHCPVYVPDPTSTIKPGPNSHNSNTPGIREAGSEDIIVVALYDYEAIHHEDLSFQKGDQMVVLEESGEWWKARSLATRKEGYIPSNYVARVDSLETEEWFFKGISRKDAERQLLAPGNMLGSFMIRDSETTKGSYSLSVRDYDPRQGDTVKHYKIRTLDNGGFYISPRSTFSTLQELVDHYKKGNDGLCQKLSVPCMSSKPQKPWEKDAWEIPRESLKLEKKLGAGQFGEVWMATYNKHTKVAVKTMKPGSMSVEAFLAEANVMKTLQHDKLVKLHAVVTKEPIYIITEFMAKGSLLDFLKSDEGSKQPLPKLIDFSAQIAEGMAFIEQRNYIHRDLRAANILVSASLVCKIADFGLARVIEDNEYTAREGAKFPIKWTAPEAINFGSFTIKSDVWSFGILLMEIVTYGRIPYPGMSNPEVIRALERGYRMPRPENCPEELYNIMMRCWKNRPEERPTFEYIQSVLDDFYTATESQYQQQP
Measure Name: phosphorylation enrichment

>>> test_value("DGTIVYTGLET [USH2A_Y4487]")
0.773
>>> test_value("LSSEMYVKSYT [F5_Y2149]")
0.991
>>> test_value("EDKSIYRRGAC [PRKCI_Y125_R130C]")
0.405
>>> test_value("PTQLPYDHKWE [KIT_Y578]")
0.87
>>> test_value("MAQDIYRASYY [ALK_Y1278_R1275Q]")
2.54
>>> test_value("GRRNTCYASIA [ACADM_Y352_Y352C]")
0.477
>>> test_value("VVKTVYSLQPS [KNSTRN_Y87_P92S]")
0.688
>>> test_value("KTTSGYAGGLS [KRT8_Y419]")
0.289
>>> test_value("PKEEPYKMQEK [SLC5A3_Y565_Q566K]")
0.415
>>> test_value("RAHARYCADAR [ACOT4_Y52]")
0.54
>>> test_value("DEDEEYEFMNR [ERBB3_Y1197_YF]")
0.579
>>> test_value("QQLQGYIPSNY [FRK_Y99]")
0.633
>>> test_value("KNKELYSDLFD [PDE10A_Y300]")
0.958
>>> test_value("AALSAYAPQRP [PTPRN2_Y249_A251P]")
0.529
>>> test_value("NKHTTYTMEHI [ACTN1_Y708_N707T]")
0.451
>>> test_value("PVADRYDQSFE [MAPK14_Y323_P322R]")
0.441
>>> test_value("TAALWYIFLHT [ENG_Y612_S615L_YF]")
0.689
>>> test_value("GVTLLCFGRFN [ADGRD1_Y85_Y85C_YF]")
0.587
>>> test_value("VFAPDFIAGVS [NOB1_Y366_Y366F]")
0.435
>>> test_value("TYGQVYKGRHV [TNIK_Y40]")
6.44
>>> test_value("IDGLEYLHSQS [STK11_Y166_G171S]")
0.604
>>> test_value("EFISEFCGEII [EZH2_Y641_Y641F]")
0.518
>>> test_value("FADIAYNFRDG [PAH_Y166_H170D_YF]")
0.464
>>> test_value("LSSETYVKSYT [F5_Y2149_M2148T]")
0.529
>>> test_value("AGIENYKSRFG [NKD2_Y256_T257K]")
0.517
>>> test_value("FFVVRYCWLRR [MPZ_Y181_YF]")
0.459
>>> test_value("LSQAKYQIRFR [CRLF1_Y272_F268S_YF]")
0.431
>>> test_value("QLQVFYATLDQ [MIPEP_Y579]")
3.38
>>> test_value("GEEIKYMLWLL [OTC_Y55_S60L]")
0.663

---

biological target: FGFR1 (UniProt P11362); experiment: phosphorylation enrichment, bacterial display (enrichment ratio); higher = better substrate or ligand; peptides without Tyr show the background
Sequence (P11362 whole entry, looked up): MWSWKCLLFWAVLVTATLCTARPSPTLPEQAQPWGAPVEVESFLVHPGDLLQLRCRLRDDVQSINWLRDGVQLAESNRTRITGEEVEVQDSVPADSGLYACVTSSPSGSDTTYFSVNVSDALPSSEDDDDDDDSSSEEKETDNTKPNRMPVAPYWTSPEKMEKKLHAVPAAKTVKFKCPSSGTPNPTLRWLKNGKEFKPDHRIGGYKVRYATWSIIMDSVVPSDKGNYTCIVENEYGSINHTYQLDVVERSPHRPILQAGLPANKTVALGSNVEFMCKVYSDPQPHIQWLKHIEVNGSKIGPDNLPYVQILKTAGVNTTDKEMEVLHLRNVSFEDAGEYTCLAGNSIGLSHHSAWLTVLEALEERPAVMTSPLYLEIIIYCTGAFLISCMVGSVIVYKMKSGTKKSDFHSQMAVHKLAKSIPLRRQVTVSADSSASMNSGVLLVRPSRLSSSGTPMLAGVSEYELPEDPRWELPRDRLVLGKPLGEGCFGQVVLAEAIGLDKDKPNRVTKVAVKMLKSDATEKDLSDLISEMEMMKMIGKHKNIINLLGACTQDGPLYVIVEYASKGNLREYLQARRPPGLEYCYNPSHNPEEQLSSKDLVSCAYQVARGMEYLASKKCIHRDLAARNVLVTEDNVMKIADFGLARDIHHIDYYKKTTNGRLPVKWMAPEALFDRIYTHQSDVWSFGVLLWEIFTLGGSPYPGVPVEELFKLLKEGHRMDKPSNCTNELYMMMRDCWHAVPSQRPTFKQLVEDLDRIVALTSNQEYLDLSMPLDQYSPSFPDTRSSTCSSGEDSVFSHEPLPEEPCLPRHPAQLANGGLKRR
Binning of phosphorylation enrichment into classes: low range = under 0.5, mid range = from 0.5 up to 0.6, high range = 0.6 and over

>>> assigned_category("SVTWTYSPALN [TP53_Y126_C124W]")
"low range"
>>> assigned_category("EKRDAYVSCLN [GSR_Y150_R153C]")
"mid range"
>>> assigned_category("ILGRFYETGSI [PAX2_Y73_YF]")
"low range"
>>> assigned_category("FSQQTYCRVSN [ABCD1_Y180_Y181C]")
"mid range"
>>> assigned_category("LNCDRYSAGLL [PDE6A_Y275_V277A]")
"low range"
>>> assigned_category("ARSHIYTLASC [MEFV_Y741_F743L]")
"mid range"
>>> assigned_category("ILGRTHYVNHE [NEDD4_Y627_Y627H]")
"low range"
>>> assigned_category("PVQAAYQKVVA [HBB_Y131]")
"high range"
>>> assigned_category("ANNPLYKEATP [ITGB3_Y773_S778P]")
"low range"
>>> assigned_category("LDLSYYPTSSS [EMD_Y182]")
"high range"
>>> assigned_category("PLKFLYPNIDK [STAT1_Y668_YF]")
"high range"
>>> assigned_category("HFPFQCHRQLY [F12_Y53_Y53C]")
"high range"
>>> assigned_category("KSSDVYVSYDY [SORL1_Y136]")
"high range"

The reported numbers originate from the supplement of paper PMC10065799.
